B1: ZNF8 (parent)
chain: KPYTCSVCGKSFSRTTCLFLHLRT

# Variants of: B1
# test-description: protein stability index of a GFP-peptide fusion (GPS, HEK-293T) (PSI 1-6); higher = more stable;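 further: lentivirally expressed fusions sorted by FACS into six bins by GFP to DsRed ratio, PSI derived from sequencing read proportions per bin multiplied by bin number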
# condition-notes: c terminus: a fixed tail appended
Think of 2 as a floor: if protein stability index stands on it or above, it is True; beneath it, False.

I'd appreciate it if you could say whether KPYTCSVCGKSFSRTTCLFLHLMT [R23M] has protein stability index at least equal to 2.
True

I'd appreciate it if you could say whether KPYTCSVCGKSVSRTTCLFLHLRT [F12V] has protein stability index at least equal to 2.
False

I'd appreciate it if you could say whether KPYTCSVCGKSMSRTTCLFLHLRT [F12M] has protein stability index at least equal to 2.
True

I'd appreciate it if you could say whether KPYTCSVCGKSFSRMTCLFLHLRT [T15M] has protein stability index at least equal to 2.
True

I'd appreciate it if you could say whether KPYTCSVCMKSFSRTTCLFLHLRT [G9M] has protein stability index at least equal to 2.
True
